- EXPERIMENT DESCRIPTION: in vitro
- MEASUREMENT CONDITIONS: mouse, liver microsomes

{"columns": ["MOLECULE", "remaining at 0.5 h, 1000 µM [%]"],
 "data": [
  ["O=C1CC2(CCCC2)CC(=O)N1CCCCN1CCN(c2ncccn2)CC1 [BUSPIRONE]", 99.1],
  ["O=C(/C=C/c1cccn(CCCc2ccc3ccccc3c2)c1=O)NO", 90.3]
]}

Value source: ChEMBL document CHEMBL4000204
